- Test system: RPMI-8226 leukemia
- experiment_summary: NCI tumour cell line growth inhibition, 48 h
observed_property: TGI (µM)
Note: unit µM is implicit; provide only the numeric part.

API: value(readout= TGI, system= RPMI-8226 leukemia, query= CN[C@@H](C)C(=O)N[C@H](C(=O)N1CCC[C@H]1C(=O)N[C@H]1c2ccccc2C[C@H]1OCC#CC#CCO[C@@H]1Cc2ccccc2[C@@H]1NC(=O)[C@@H]1CCCN1C(=O)[C@@H](NC(=O)[C@H](C)NC)C1CCCCC1)C1CCCCC1 )
3.9

API: value(readout= TGI, system= RPMI-8226 leukemia, query= O=C(/C=C/c1ccc(F)cc1)c1ccc(Cl)cc1Cl )
39.5

API: value(readout= TGI, system= RPMI-8226 leukemia, query= CCOC(=O)C(C(=O)OCC)=C1NC2(c3ccccc3Nc3ccc(C)cc32)C(C#N)S1 (centres undefined) )
4.63

API: value(readout= TGI, system= RPMI-8226 leukemia, query= COc1cc(C(=O)/C(C)=C/c2c[nH]c3ccccc23)cc(OC)c1OC )
4.55

====

- System: PC-3 prostate
- experiment_summary: NCI tumour cell line growth inhibition, 48 h
observed_property: TGI

Below, each entry is followed by its recorded TGI result.
>  <compound>
CSc1ccc(C2=NN(C(=O)c3ccc(F)cc3)C(c3ccc(F)cc3)C2)cc1 (configuration not stated)

>  <observed>
22.2 µM

$$$$
>  <compound>
CN(C)C=C1C(=O)c2c(Br)sc(Br)c2C1=O

>  <observed>
49.9 µM

$$$$
>  <compound>
Nc1c(C(=O)c2ccc(Cl)cc2)sc(Nc2ccccc2)c1-c1nc2ccccc2s1

>  <observed>
> 100 µM

$$$$
>  <compound>
Cc1oc2c(c1C)S(=O)(=O)C(C#N)C(c1ccccc1)N2 (configuration not stated)

>  <observed>
> 100 µM

$$$$

Which TGI reading was recorded for the compound COc1cc(S(=O)(=O)Nc2nc(-c3ccc(N4C(=O)CSC4c4cccs4)cc3)cs2)ccc1Cl (configuration not stated) ?
> 100 µM

Which TGI reading was recorded for the compound O=C(N/N=C/c1ccc2c(c1)OCO2)Nc1ccccc1Cl ?
> 100 µM

Which TGI reading was recorded for the compound CCOC(=O)c1cc(C#N)c(=O)n(/N=C(\C)c2ccncc2)c1O ?
> 100 µM

====

- Test system: NCI-H23 lung
- experiment_summary: NCI tumour cell line growth inhibition, 48 h; in the data active means GI50 below about 0.43 µM; inactive means the rest
Log the outcome using a class from 1 = active, -1 = inactive

>  <compound>
O=c1c(Oc2ccc(F)cc2F)cc2cnc(NC3CCOCC3)nc2n1C1CCS(=O)(=O)CC1

>  <category_label>
-1

$$$$
>  <compound>
COc1ccc(CN(C)c2ccc(CO)c(Cl)c2)cc1

>  <category_label>
-1

$$$$
>  <compound>
Cc1nc2sc(C(=O)Nc3cccc(Cl)c3C)c(N)c2cc1C(=O)/C=C/c1ccccc1

>  <category_label>
-1

$$$$
>  <compound>
COc1cc(OC)cc(C2CC(=O)Nc3c2c(C)nn3-c2nc3ccccc3[nH]2)c1 (stereo unspecified)

>  <category_label>
-1

$$$$
>  <compound>
Cc1cc(I)cc(CN(C)CCCN2CCSCC2)c1O

>  <category_label>
-1

$$$$

Hello, I am checking results. What call was entered for ClCc1cccc(Cn2cnc3c(NC45CC6CC(CC(C6)C4)C5)ncnc32)c1 ?
-1

Hello, I am checking results. What call was entered for CO[C@@H]1/C=C\C=C(/C)C(=O)NC2=CC(=O)C(NCCN(C)C)=C(C[C@@H](C)C[C@@H](OC)[C@@H](O)[C@H](C)/C=C(\C)[C@H]1OC(N)=O)C2=O ?
1

Hello, I am checking results. What call was entered for O=C(O[C@H]1CN[C@H](C#Cc2cc3ncnc(Nc4ccc5c(ccn5Cc5cc(F)ccc5F)c4)c3s2)C1)N1CCOCC1 ?
-1

Hello, I am checking results. What call was entered for NOCC(=O)O ?
-1

Hello, I am checking results. What call was entered for COc1cc(C(=O)/C(C)=C/c2c[nH]c3ccccc23)cc(OC)c1OC ?
1

Hello, I am checking results. What call was entered for Nc1c(C(=O)c2ccc(Cl)cc2)sc(Nc2ccccc2)c1-c1nc2ccccc2s1 ?
-1
